Target: HLA-A*68:02
Assay: IEDB peptide-MHC binding, purified MHC/competitive/fluorescence; filed as Kd, often an IC50 or EC50 that approximates it; bounds were set here for any values at or beyond the usual limits of such assays
Conditions: source organism: Cryptosporidium parvum Iowa II
quantity_measured: Kd

[
  {
    "sequence_code": "KSFSAGMFH",
    "target_or_system": "HLA-A*68:02",
    "quantity_measured": "Kd",
    "result": "≥ 20 µM"
  }
]

Okay, next one:
Recorded Kd for KSWLVHWSL with HLA-A*68:02, please?
≥ 20 µM

====

Biological target: HLA-B*40:01
Test: IEDB peptide-MHC binding, purified MHC/competitive/radioactivity; filed as Kd, often an IC50 or EC50 that approximates it; bounds were set here for any values at or beyond the usual limits of such assays
Conditions: source organism: Mammarenavirus choriomeningitidis
pKd: −log10 of the molar value.
quantity_measured: pKd

Recorded pKd for ADYLSCSHF with HLA-B*40:01, please?
≤ 4.33
